Source of measurements: paper PMC5336394

biological target: CypA^V6S (UniProt P62937 1-165, V6S); assay: NMR titration
Sequence (P62937 whole entry V6S): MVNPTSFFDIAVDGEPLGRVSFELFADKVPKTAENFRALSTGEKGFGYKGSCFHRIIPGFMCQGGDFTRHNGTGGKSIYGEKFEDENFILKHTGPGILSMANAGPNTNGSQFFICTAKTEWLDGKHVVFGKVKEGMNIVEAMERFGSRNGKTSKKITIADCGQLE
observable: Kd

The measured Kd associated with GSFGPDLRAGD [FGP peptide] reads 65 µM
